system: MDA-MB-435; assay: NCI tumour cell line growth inhibition, 48 h
readout_name: TGI (µM)

INSERT INTO results (compound, censor_symbol, recorded_measurement) VALUES
  ('Cc1c2c(n(CC(c3ccccc3)c3ccccc3)c1C)NN=C(C#N)S2(=O)=O', '>', 100),
  ('COc1c(N2CCN(CN3C(=O)C(=O)c4cc(Cl)ccc43)C(C)C2)c(F)cc2c(=O)c(C(=O)O)cn(C3CC3)c12 (stereo unspecified)', '=', 36.3),
  ('COc1cc2c(/C=C3/C(=O)N(C)c4ccc(O)cc43)c(Cl)[nH]c2cc1C', '=', 0.124),
  ('C=C(Cl)C(Cl)(CCl)CCC(Br)C(C)(C)Br (stereo unspecified)', '>', 10),
  ('Cn1cc(S(=O)(=O)NC(=O)Nc2ccc(Cl)cc2)c(=O)c2ccc(F)cc21', '>', 100),
  ('CC1=Nc2c([nH]c(=S)[nH]c2=O)NC(c2c(Cl)cccc2Cl)C1 (stereo unspecified)', '=', 2.88),
  ('O=C1CSC(c2cccc(Cl)c2)N1c1ccc(-c2ccc(-n3c(-c4ccccc4)nc4ccccc4c3=O)cc2)cc1 (stereo unspecified)', '>', 100),
  ('COc1ccc2c(c1)-c1nn(CCCN(C)C)c3ccc([N+](=O)[O-])c(c13)N2', '=', 2.9),
  ('COc1cc(-c2c3c(cc4c2OCO4)[C@@H](Nc2ccc(-c4ccc(-c5ccc(N[C@@H]6c7cc8c(cc7C(c7cc(OC)c(O)c(OC)c7)[C@H]7C(=O)OC[C@H]67)OCO8)cc5)cc4)cc2)[C@H]2COC(=O)[C@@H]2C3)cc(OC)c1O (stereo partly specified)', '=', 3.86),
  ('C#CC(O)/C=C/CCCCCCC#CC/C=C\CC#CCCCCCCCCC(O)C#C (stereo unspecified)', '=', 7.43),
  ('CC(C)=CC[C@]12CCN(C)[C@H]1N(S(=O)(=O)c1ccccc1)c1ccccc12', '>', 71.6);

---

Reported TGI values are given for each entry in this list.
tested on: NCI-H522 lung; test: NCI tumour cell line growth inhibition, 48 h
readout_name: TGI

INSERT INTO results (compound, readout_name, recorded_measurement) VALUES
  ('C=C(C(=C)P(=S)(C(C)C)C(C)C)P(=S)(C(C)C)C(C)C', 'TGI', '> 100 µM'),
  ('c1ccc2c(c1)cc1n2CCc2c-1[nH]c1ccccc21', 'TGI', '> 10 µM'),
  ('C=C(Cl)C(Cl)(CCl)CCC(Br)C(C)(C)Br (stereo not given)', 'TGI', '> 10 µM'),
  ('CC(C)C1=CC(=O)[C@@](C)(C2[C@H](O)C[C@@]3(C)[C@@H]4CC=C5[C@@H](CC[C@@H](OC6OCC(O)C(O)C6OC6OC(C)C(O)C(O)C6O)C5(C)C)[C@]4(C)C(=O)C[C@]23C)O1 (stereo not given in full)', 'TGI', '> 100 µM'),
  ('CC1OC(CC(=O)O)CC2=C1C(=O)c1c(O)cccc1C2=O (stereo not given)', 'TGI', '< 0.0251 µM');

---

Reported TGI values are given for each entry in this list.
test system: MALME-3M melanoma; experiment: NCI tumour cell line growth inhibition, 48 h
readout_name: TGI

INSERT INTO measurements (molecule, assayed_system, recorded_measurement) VALUES
  ('CC(Oc1ccccc1)C(=O)NNC(=O)OC(C)(C)C (centres undefined)', 'MALME-3M melanoma', '> 100 µM'),
  ('NC(CSSCC(N)C(=O)O)C(=O)O (centres undefined)', 'MALME-3M melanoma', '> 100 µM'),
  ('Cc1ccc2c(c1)nc1n2C(N)=Nc2ccccc2S1', 'MALME-3M melanoma', '> 100 µM'),
  ('Cn1cc(C(=O)c2ccccc2)cc(C(=O)c2ccccc2)c1=O', 'MALME-3M melanoma', '> 100 µM'),
  ('O=c1cccc(-c2cccc(=O)[nH]2)[nH]1', 'MALME-3M melanoma', '> 100 µM'),
  ('C/C(=N\Nc1nc2ccccc2s1)c1cc2ccccc2cn1', 'MALME-3M melanoma', '> 100 µM'),
  ('C[C@]12CC(c3ccccc3O1)C(C(=O)Nc1nc(C34CC5CC(CC(C5)C3)C4)cs1)C(=O)N2 (some centres undefined)', 'MALME-3M melanoma', '> 100 µM'),
  ('C=C(C(=C)P(=S)(C(C)C)C(C)C)P(=S)(C(C)C)C(C)C', 'MALME-3M melanoma', '> 100 µM'),
  ('COc1ccccc1C1(c2c(OC)c(=O)c2=O)SCCCS1', 'MALME-3M melanoma', '> 100 µM'),
  ('CC(C)=CC[C@]12CCN(C)[C@H]1N(S(=O)(=O)c1ccccc1)c1ccccc12', 'MALME-3M melanoma', '> 100 µM'),
  ('CC(C)C1=CC(=O)[C@@](C)(C2[C@H](O)C[C@@]3(C)[C@@H]4CC=C5[C@@H](CC[C@@H](OC6OCC(O)C(O)C6OC6OC(C)C(O)C(O)C6O)C5(C)C)[C@]4(C)C(=O)C[C@]23C)O1 (some centres undefined)', 'MALME-3M melanoma', '> 100 µM'),
  ('O=C1CC/C(=C/COc2cc(=O)oc3ccccc23)O1', 'MALME-3M melanoma', '17.9 µM'),
  ('c1ccc2c(c1)cc1n2CCc2c-1[nH]c1ccccc21', 'MALME-3M melanoma', '> 10 µM'),
  ('COc1cc(C(C)O)c[n+](CCC2CNc3ccccc32)c1 (centres undefined)', 'MALME-3M melanoma', '> 100 µM'),
  ('Nc1nc(Cl)c(Cl)c(NCC2(O)CCC2)n1', 'MALME-3M melanoma', '> 100 µM'),
  ('COCCOCCOCc1n(Cc2ccc3ccccc3n2)c2ccccc2[n+]1Cc1ccc2ccccc2n1', 'MALME-3M melanoma', '8.67 µM'),
  ('CC1=C(C)CC2(C=C(C(C)(C)C)C(=O)C(C(C)(C)C)=C2)SC1', 'MALME-3M melanoma', '33.4 µM'),
  ('O=C(NCCCl)SCCO', 'MALME-3M melanoma', '> 100 µM'),
  ('COC(=O)[C@H](Cc1cn(C)cn1)NC(=O)[C@H](C)NC(=O)Nc1cc(C(F)(F)F)cc(C(F)(F)F)c1', 'MALME-3M melanoma', '> 10 µM'),
  ('Brc1cccc(C2ON=C(c3ccccc3)N2C23CC4CC(CC(C4)C2)C3)c1 (centres undefined)', 'MALME-3M melanoma', '> 10 µM'),
  ('C/C(=N\NC(=S)N1CCCCCC1)c1cccc2cccnc12', 'MALME-3M melanoma', '> 61 µM'),
  ('COc1cc(OC)c2c(c1)OC(c1cccnc1)C(c1ccccc1)C2=O (centres undefined)', 'MALME-3M melanoma', '> 100 µM'),
  ('COC(=O)c1cc(OC)c(OC)c(OC)c1-c1cc2c(cc1C=O)OCO2', 'MALME-3M melanoma', '> 10 µM'),
  ('CC(=O)c1ccc(NC(=O)COC(=O)c2cccc3c(=O)c4ccccc4[nH]c23)cc1', 'MALME-3M melanoma', '> 100 µM');

---

tested on: K-562 leukemia; experiment: NCI tumour cell line growth inhibition, 48 h; in the data active = GI50 below about 0.43 µM; inactive = the rest
Labels: yes = active, no = inactive

INSERT INTO measurements (compound, assayed_system, class_name) VALUES
  ('Cc1nc2ccccc2nc1N=Nc1ccccc1', 'K-562 leukemia', 'no'),
  ('CC(=O)O[C@H]1CC[C@@]2(C)C(=C/C(=N/OCCN3CCCC3)[C@H]3[C@@H]4CC[C@H](OC(C)=O)[C@@]4(C)CC[C@@H]32)C1', 'K-562 leukemia', 'no'),
  ('Cc1[nH]c2cc(F)ccc2c1-c1nc2c3cccnc3c3ncccc3c2[nH]1', 'K-562 leukemia', 'yes'),
  ('CCSC[C@@H]1C[C@](O)(c2ccc(F)cc2)[C@@H](c2ccc(F)cc2)O1', 'K-562 leukemia', 'no'),
  ('COc1cnc2c(c1)C(=O)c1c-2n(CCCN2CCC(O)CC2)c(=O)c2cc(Cl)ccc12', 'K-562 leukemia', 'no'),
  ('CCCCCCCCCCCCCC[n+]1ccc(C)cc1', 'K-562 leukemia', 'yes'),
  ('CCCCOC1OC(COC(=O)C(C)C)C(OC(=O)C(C)C)C(O)C1OC1OC(C)C(OC(=O)CCC)C(OC(=O)C(C)C)C1O (configuration not stated)', 'K-562 leukemia', 'no'),
  ('Cl.Fc1c[c-]c(-c2ccccn2)c(F)c1.[Pt].c1ccc([PH+](C[PH+](c2ccccc2)c2ccccc2)c2ccccc2)cc1', 'K-562 leukemia', 'yes'),
  ('CCCCNc1ccc(Nc2ccccc2)cc1', 'K-562 leukemia', 'no'),
  ('COc1ccc(-c2c3c(nc4n[nH]c(-c5ccc(Cl)cc5)c24)-c2ccccc2C(=O)C3=O)cc1', 'K-562 leukemia', 'no'),
  ('NC(=O)c1sc(-n2cnc3cc(C(F)(F)F)ccc32)cc1OCc1ccccc1Br', 'K-562 leukemia', 'no'),
  ('O=C1c2cccnc2C(=O)c2c1c(C(=O)OCCCN1CCCCC1)c1ccccn21', 'K-562 leukemia', 'yes');
